assayed-target: human TGR5 (Homo sapiens)
Construct: expressed in transfected cells; host or cells: HEK293
Sequence (Q8TDU6 1-330): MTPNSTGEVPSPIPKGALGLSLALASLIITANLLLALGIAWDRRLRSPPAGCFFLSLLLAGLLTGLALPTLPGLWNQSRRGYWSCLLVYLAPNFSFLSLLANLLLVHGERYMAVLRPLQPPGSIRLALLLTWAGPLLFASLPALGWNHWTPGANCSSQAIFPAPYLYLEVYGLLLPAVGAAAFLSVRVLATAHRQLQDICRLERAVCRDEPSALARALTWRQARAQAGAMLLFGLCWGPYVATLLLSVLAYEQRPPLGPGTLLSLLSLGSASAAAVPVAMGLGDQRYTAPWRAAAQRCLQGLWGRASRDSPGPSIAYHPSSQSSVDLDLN
assay-info: Cell-based TGR5 assay (cAMP generation, HTRF)
measurement-conditions: HEK293 cells stably transfected with human TGR5; cAMP by HTRF; 30 minutes at 37° C.; read-out: pEC50 Human TGR5 (converted)
Listed compounds paired with reported EC50

# count of solved cases: 4
Value lookup for EC50; key = Cc1cc(COC2(c3cnccc3-c3ccccc3OC3CC3)CC2)c(C)cc1CCCCC(=O)N(C)C[C@H](O)[C@@H](O)[C@H](O)[C@H](O)CO [Compound I-230]
< 100 nM

Try CC(CCCC(=O)N(CCC(=O)N(C)C)C[C@H](O)[C@@H](O)[C@H](O)[C@H](O)CO)c1ccc(Cl)c(CNC2(c3cnccc3-c3ccccc3OC3CC3)CC2)c1 (some centres unmarked) [Compound I-345] next.
126 to 1000 nM

Try CCN(CCCCNC(=O)N[C@@H](CO)[C@@H](O)[C@H](O)[C@H](O)CO)S(=O)(=O)c1ccc(Cl)c(CNC2(c3cnccc3-c3ccccc3OC3CC3)CC2)c1 [Compound I-696] next.
< 100 nM

Try CC(=O)NCCCCN(C)S(=O)(=O)c1ccc(Cl)c(COC2(c3cnccc3-c3ccccc3OC3CC3)CC2)c1 [Compound I-766] next.
< 100 nM

***
Value lookup for EC50; key = CN(CCC(=O)NC[C@H](O)[C@@H](O)[C@H](O)[C@H](O)CO)S(=O)(=O)c1ccc(Cl)c(COC2(c3cnccc3-c3ccccc3OC3CC3)CC2)c1 [Compound I-434]
< 100 nM

Try Cc1ccc(C(C)CCCN(C(=O)[C@@H](O)[C@@H](O)[C@H](O)[C@@H](O)CO)C2CCS(=O)(=O)CC2)cc1CNC1(c2cnccc2-c2ccccc2OC2CC2)CC1 (some centres unmarked) [Compound I-306] next.
< 100 nM

Try CN(CCCCSc1ccc(Cl)c(COC2(c3cnccc3-c3ccccc3OC3CC3)CC2)c1)C(=O)[C@@H](O)[C@@H](O)[C@H](O)[C@@H](O)CO [Compound I-510] next.
< 100 nM

Try CN(C[C@H](O)[C@@H](O)[C@H](O)[C@H](O)CO)C(=O)CCSc1ccc(Cl)c(COC2(c3cnccc3-c3ccccc3OC3CC3)CC2)c1 [Compound I-677] next.
< 100 nM

Try CN(CCCCNC(=O)NC[C@H](O)[C@@H](O)[C@H](O)[C@H](O)CO)S(=O)(=O)c1ccc(C(F)(F)F)c(CNC2(c3cnccc3-c3ccccc3OC3CC3)CC2)c1 [Compound I-468] next.
126 to 1000 nM

Try Cc1ccc([C@@H](C)CCCC(=O)N(C)C[C@H](O)[C@@H](O)[C@H](O)[C@H](O)CO)cc1CNC1(c2cnccc2-c2ccccc2OC2CC2)CC1 (single isomer, unassigned) [Compound I-350] next.
< 100 nM

Try O=C([C@@H](O)[C@@H](O)[C@H](O)[C@@H](O)CO)N(CCCCSc1ccc(Cl)c(COC2(c3cnccc3-c3ccccc3OC3CC3)CC2)c1)CC1CCOCC1 [Compound I-516] next.
< 100 nM
